- target.of.assay: Human neutrophil elastase (Homo sapiens (Human))
- assay.text: Human Neutrophil Elastase Assay
- Format: biochemical
- experimental.context: substrate MeOSuc-Ala-Ala-Pro-Val-AMC 250 μM, pH 7.5
measured.endpoint: IC50

>>> observed("CN1C(=O)N(c2cccc(C(F)(F)F)c2)C2=C(C(=O)CC2)C1c1ccc(C#N)cc1C1=CCNCC1 (stereo not shown)")
"< 1 nM"
>>> observed("CN1C(=O)N(c2cccc(C(F)(F)F)c2)C2=C(C(=O)CC2)[C@H]1c1ccc(C#N)cc1C(N)=O")
"2.4 nM"
>>> observed("CN(Cc1cn[nH]c1)C(=O)c1cc(C#N)ccc1C1C2=C(CCC2=O)N(c2cccc(C(F)(F)F)c2)C(=O)N1C (stereo not shown)")
"< 1 nM"
>>> observed("CN1C(=O)N(c2cccc(C(F)(F)F)c2)C2=C(C(=O)CC2)C1c1ccc(C#N)cc1C1=CCNC1 (stereo not shown)")
"< 1 nM"

* * *

Listing of recorded IC50 by entry.
- target.of.assay: Human neutrophil elastase (Homo sapiens (Human), UniProt P08246)
- Sequence (P08246 30-247): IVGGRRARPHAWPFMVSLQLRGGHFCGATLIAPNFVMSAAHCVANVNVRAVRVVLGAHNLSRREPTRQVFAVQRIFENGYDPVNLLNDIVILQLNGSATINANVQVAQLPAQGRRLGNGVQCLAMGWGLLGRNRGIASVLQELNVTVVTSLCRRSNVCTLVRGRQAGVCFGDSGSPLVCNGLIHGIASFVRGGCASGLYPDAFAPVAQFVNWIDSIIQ
- assay.text: Human Neutrophil Elastase Assay
- Assay type: biochemical
- experimental.context: substrate MeOSuc-Ala-Ala-Pro-Val-AMC 250 μM, pH 7.5
measured.endpoint: IC50 (nM)

>>> observed("CN1C(=O)N(c2cccc(C(F)(F)F)c2)C2=C(C(=O)CC2)C1c1ccc(C#N)cc1C(=O)NCC(F)(F)F (stereo not drawn) [Example 1.21]")
7.1
>>> observed("CN1C(=O)N(c2cccc(C(F)(F)F)c2)C2=C(C(=O)CC2)C1c1ccc(C#N)cc1C(=O)NCc1ccnnc1 (stereo not drawn) [Example 1.49]")
5
>>> observed("CN1C(=O)N(c2cccc(C(F)(F)F)c2)C2=C(C(=O)CC2)C1c1ccc(C#N)cc1C(=O)NCC(C)(C)O (stereo not drawn) [Example 1.19]")
9.5
>>> observed("CN1C(=O)N(c2cccc(C(F)(F)F)c2)C2=C(C(=O)CC2)C1c1ccc(C#N)cc1C(=O)NCCN (stereo not drawn) [Example 4.3]")
3.1
>>> observed("CN1C(=O)N(c2cccc(C(F)(F)F)c2)C2=C(C(=O)CC2)C1c1ccc(C#N)cc1C(=O)N1CCN2CCOCC2C1 (stereo not drawn) [Example 1.35]")
16.2
>>> observed("CN1CCN(C(=O)c2cc(C#N)ccc2C2C3=C(CCCC3=O)N(c3cccc(C(F)(F)F)c3)C(=O)N2C)CC1 (stereo not drawn) [Example 6.2]")
5.1
>>> observed("CN1C(=O)N(c2cccc(C(F)(F)F)c2)C2=C(C(=O)CC2)C1c1ccc(C#N)cc1C(=O)NCc1cccnc1 (stereo not drawn) [Example 1.46]")
3.9
>>> observed("CN1C(=O)N(c2cccc(C(F)(F)F)c2)C2=C(C(=O)CCC2)C1c1ccc(C#N)cc1C1=CCN(C(=O)OC(C)(C)C)C1 (stereo not drawn) [Example 15.6]")
10.7
>>> observed("CN1CCC(NC(=O)c2cc(C#N)ccc2C2C3=C(CCC3=O)N(c3cccc(C(F)(F)F)c3)C(=O)N2C)CC1 (stereo not drawn) [Example 1.25]")
8
>>> observed("CN1C(=O)N(c2cccc(C(F)(F)F)c2)C2=C(C(=O)CC2)C1c1ccc(C#N)cc1C(=O)N1CCCC1 (stereo not drawn) [Example 1.10]")
3.4
>>> observed("CN1C(=O)N(c2cccc(C(F)(F)F)c2)C2=C(C(=O)CC2)C1c1ccc(C#N)cc1C(=O)N[C@H]1C[C@H]1N (stereo partly drawn) [Example 4.14]")
4.9
>>> observed("CN1C(=O)N(c2cccc(C(F)(F)F)c2)C2=C(C(=O)CC2)C1c1ccc(C#N)cc1-c1cccnc1 (stereo not drawn) [Example 11.10]")
3.1
>>> observed("CN1C(=O)N(c2cccc(C(F)(F)F)c2)C2=C(C(=O)CC2)C1c1ccc(C#N)cc1CN1CCOCC1 (stereo not drawn) [Example 9]")
1.4
>>> observed("CN1C(=O)N(c2cccc(C(F)(F)F)c2)C2=C(C(=O)CC2)C1c1ccc(C#N)cc1C1=CCN(C(=O)OC(C)(C)C)C1 (stereo not drawn) [Example 11.4]")
2.5
